# Target system: JAK1 (Homo sapiens (Human))
# Sequence (P23458 whole entry): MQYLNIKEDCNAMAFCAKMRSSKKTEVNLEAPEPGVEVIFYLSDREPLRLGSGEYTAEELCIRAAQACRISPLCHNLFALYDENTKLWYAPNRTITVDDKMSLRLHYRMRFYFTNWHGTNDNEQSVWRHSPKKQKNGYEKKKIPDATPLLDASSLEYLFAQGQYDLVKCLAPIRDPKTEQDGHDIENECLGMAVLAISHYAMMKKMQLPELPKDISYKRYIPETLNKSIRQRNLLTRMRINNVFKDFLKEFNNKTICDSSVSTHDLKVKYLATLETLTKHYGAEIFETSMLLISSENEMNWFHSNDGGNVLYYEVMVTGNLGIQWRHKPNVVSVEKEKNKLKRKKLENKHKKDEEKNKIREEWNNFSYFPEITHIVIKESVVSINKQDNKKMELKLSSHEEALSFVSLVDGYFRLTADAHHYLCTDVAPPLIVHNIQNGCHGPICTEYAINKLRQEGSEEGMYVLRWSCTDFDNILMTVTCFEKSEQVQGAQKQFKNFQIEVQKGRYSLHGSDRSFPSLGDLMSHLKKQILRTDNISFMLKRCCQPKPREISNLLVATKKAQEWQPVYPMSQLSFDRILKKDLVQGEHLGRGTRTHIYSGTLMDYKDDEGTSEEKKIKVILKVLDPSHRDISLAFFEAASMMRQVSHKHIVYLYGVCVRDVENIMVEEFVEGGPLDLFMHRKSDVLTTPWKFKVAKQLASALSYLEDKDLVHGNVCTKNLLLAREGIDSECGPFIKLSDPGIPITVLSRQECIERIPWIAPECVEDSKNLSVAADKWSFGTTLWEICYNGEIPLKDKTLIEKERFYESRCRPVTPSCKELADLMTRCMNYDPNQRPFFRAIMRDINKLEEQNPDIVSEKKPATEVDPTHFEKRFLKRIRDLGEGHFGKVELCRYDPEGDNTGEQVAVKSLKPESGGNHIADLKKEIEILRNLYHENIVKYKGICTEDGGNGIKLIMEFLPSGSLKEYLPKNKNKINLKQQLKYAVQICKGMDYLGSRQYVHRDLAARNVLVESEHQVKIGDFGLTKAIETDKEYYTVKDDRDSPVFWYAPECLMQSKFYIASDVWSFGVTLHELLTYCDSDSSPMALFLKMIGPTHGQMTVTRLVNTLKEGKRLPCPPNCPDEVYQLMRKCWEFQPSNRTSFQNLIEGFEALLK
Assay endpoint: pKi
Keep it numeric: pKi is minus log10 of the concentration in mol/L.

Use these answered entries as a reference point.
CCc1cc(O)c(F)cc1-c1ccc2c(-c3nc4c([nH]3)CN(C)[C@H](C(=O)N3CC(N(C)C)C3)C4)n[nH]c2c1: 10.22
CCc1cc(O)c(F)cc1-c1ccc2c(-c3nc4c([nH]3)CN(C(C)C)[C@H](C(=O)N3CC(N(C)C)C3)C4)n[nH]c2c1 [Example 2]: 10.40
CCc1cc(O)c(F)cc1-c1ccc2c(-c3nc4c([nH]3)CN(C(C)C)C(C(=O)N3CC(C)(N(C)C)C3)C4)n[nH]c2c1 (centres unmarked): 10.22
CCc1cc(O)c(F)cc1-c1ccc2c(-c3nc4c([nH]3)CN(C(C)C)[C@H](C(=O)N3CC(N(C)C)C3)C4)n[nH]c2c1 [Example 8-7]: 10.22

Entry `CCc1cc(O)c(F)cc1-c1ccc2c(-c3nc4c([nH]3)CN(C(C)C)[C@H](C(=O)N3CC(N5CCCCC5)C3)C4)n[nH]c2c1` ; pKi = 10.22

* * *

# Target system: JAK3 (Homo sapiens (Human))
# Sequence (P52333 whole entry): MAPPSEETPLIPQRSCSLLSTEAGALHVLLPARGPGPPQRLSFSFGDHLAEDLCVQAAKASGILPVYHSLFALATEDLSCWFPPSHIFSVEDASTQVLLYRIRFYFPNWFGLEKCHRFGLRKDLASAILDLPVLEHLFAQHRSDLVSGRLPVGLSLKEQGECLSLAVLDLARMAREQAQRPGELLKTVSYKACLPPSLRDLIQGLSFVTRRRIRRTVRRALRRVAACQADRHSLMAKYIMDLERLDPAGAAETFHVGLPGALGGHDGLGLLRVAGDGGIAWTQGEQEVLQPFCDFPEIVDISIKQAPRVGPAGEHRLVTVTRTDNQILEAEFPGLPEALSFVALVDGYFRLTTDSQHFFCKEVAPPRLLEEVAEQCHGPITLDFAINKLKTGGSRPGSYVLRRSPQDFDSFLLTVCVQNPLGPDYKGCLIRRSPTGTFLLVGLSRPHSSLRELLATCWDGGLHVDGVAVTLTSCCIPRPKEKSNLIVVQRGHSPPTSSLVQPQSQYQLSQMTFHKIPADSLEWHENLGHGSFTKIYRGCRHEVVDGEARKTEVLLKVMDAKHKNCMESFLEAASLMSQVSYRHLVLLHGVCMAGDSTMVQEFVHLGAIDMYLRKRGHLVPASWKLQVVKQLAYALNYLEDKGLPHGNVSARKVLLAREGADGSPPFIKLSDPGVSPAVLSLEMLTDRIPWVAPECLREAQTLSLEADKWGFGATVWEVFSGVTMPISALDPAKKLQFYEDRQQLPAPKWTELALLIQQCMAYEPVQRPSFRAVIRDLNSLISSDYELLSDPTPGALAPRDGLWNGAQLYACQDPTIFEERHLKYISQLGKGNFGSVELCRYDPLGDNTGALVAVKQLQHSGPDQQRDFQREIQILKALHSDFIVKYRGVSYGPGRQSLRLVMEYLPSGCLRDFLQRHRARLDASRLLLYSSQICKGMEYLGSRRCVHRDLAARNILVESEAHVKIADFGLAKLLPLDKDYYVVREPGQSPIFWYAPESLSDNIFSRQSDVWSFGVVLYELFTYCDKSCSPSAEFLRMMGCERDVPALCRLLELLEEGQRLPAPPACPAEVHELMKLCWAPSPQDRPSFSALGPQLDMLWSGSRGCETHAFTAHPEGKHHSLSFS
Recorded pKi values for a group of compounds are listed next.
Keep it numeric: pKi is minus log10 of the concentration in mol/L.

Use these answered entries as a reference point.
CCc1cc(O)c(F)cc1-c1ccc2c(-c3nc4c([nH]3)CN(CC)C(C(=O)N3CC(N(C)C)C3)C4)n[nH]c2c1 (stereo not drawn) [Example 8-8]: 9.55
CCCN1Cc2[nH]c(-c3n[nH]c4cc(-c5cc(F)c(O)cc5CC)ccc34)nc2C[C@H]1C(=O)N1CC(N2CCCCC2)C1 [Example 8-5]: 9.70
CCCN1Cc2[nH]c(-c3n[nH]c4cc(-c5cc(F)c(O)cc5CC)ccc34)nc2C[C@H]1C(=O)N1CC(N(C)C)C1 [Example 4]: 9.89
CCc1cc(O)c(F)cc1-c1ccc2c(-c3nc4c([nH]3)CN(CC)[C@H](C(=O)N3CC(N(C)C)C3)C4)n[nH]c2c1 [Example 8-22]: 9.49
CCc1cc(O)c(F)cc1-c1ccc2c(-c3nc4c([nH]3)CN(C(C)C)[C@H](C(=O)N3CC(N(C)C)C3)C4)n[nH]c2c1 [Example 8-7]: 9.70

Entry CCc1cc(O)c(F)cc1-c1ccc2c(-c3nc4c([nH]3)CN(CC)[C@@H](C(=O)N3CC(N(C)C)C3)C4)n[nH]c2c1 [Example 8-20] ; pKi = 9.70

Entry CCc1cc(O)c(F)cc1-c1ccc2c(-c3nc4c([nH]3)CN(C(C)C)[C@@H](C(=O)N3CC(N(C)C)C3)C4)n[nH]c2c1 [Example 8-17] ; pKi = 9.89

Entry CCc1cc(O)c(F)cc1-c1ccc2c(-c3nc4c([nH]3)CN(C)C(C(=O)N3CC(C)(N(C)C)C3)C4)n[nH]c2c1 (stereo not drawn) [Example 8-9] ; pKi = 9.80

Entry CCc1cc(O)c(F)cc1-c1ccc2c(-c3nc4c([nH]3)CN(C(C)C)[C@H](C(=O)N3CC(N(C)C)C3)C4)n[nH]c2c1 [Example 2] ; pKi = 10.00

* * *

# Target system: Tyk2 (Homo sapiens (Human))
# Sequence (P29597 whole entry): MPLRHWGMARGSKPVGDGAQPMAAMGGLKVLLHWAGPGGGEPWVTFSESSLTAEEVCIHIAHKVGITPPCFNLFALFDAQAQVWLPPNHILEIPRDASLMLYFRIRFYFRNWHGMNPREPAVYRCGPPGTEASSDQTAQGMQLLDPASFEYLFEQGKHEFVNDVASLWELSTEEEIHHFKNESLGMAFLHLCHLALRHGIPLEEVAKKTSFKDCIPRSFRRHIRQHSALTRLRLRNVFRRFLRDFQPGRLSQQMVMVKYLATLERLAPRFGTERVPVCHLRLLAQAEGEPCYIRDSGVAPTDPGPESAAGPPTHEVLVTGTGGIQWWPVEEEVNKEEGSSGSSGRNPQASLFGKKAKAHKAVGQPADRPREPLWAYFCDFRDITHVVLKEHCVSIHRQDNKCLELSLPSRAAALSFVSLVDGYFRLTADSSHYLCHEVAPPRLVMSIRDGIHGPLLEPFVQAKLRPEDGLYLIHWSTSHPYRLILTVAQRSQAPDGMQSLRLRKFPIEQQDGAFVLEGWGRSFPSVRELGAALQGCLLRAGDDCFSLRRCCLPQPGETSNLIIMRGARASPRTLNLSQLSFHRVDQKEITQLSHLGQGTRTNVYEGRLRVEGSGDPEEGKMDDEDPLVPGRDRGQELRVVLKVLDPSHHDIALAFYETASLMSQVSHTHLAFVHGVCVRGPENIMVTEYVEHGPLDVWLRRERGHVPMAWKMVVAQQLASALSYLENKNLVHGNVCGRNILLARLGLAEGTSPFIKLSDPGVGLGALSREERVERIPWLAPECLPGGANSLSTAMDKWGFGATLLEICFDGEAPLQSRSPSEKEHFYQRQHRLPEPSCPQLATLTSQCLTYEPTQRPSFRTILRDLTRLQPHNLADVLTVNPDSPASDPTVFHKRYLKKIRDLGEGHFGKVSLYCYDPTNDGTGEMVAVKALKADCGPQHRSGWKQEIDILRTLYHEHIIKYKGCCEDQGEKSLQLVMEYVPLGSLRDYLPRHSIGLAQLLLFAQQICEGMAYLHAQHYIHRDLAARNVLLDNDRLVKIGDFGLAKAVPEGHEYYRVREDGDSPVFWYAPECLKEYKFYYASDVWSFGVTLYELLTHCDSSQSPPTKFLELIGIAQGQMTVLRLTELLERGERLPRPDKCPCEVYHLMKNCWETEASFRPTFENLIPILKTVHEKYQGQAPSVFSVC
Assay endpoint: Ki
Could you write the number and then its unit?

Entry `CCc1cc(O)c(F)cc1-c1ccc2c(-c3nc4c([nH]3)CN(C(C)C)[C@H](C(=O)N3CC(N(C)C)C3)C4)n[nH]c2c1` ; Ki = 0.32 nM
